experiment: molar heat capacity at constant pressure; conditions: 338.15 K; 101.33 kPa; Liquid
endpoint label: molar heat capacity at constant pressure (J/K/mol)

| compound | measured value |
| --- | --- |
| OCCCCO | 227.12 |
| CC(O)CC(C)(C)O (stereo not given) | 298.68 |
| CC(O)C(C)O (stereo not given) | 256.17 |
| CCC(O)CO (stereo not given) | 251.63 |
| CCCCO | 209.16 |

====

assay: molar heat capacity at constant pressure; details: 313.15 K; 101.33 kPa; Liquid
endpoint label: molar heat capacity at constant pressure (J/K/mol)

| compound | measured value |
| --- | --- |
| CCC(O)CO (stereo not given) | 238.97 |
| OCCCCO | 211.57 |
| CCCCO | 188.02 |
| CC(O)CC(C)(C)O (stereo not given) | 275.53 |
| CC(O)C(C)O (stereo not given) | 244.35 |

====

experiment: molar heat capacity at constant pressure; conditions: 348.15 K; 101.33 kPa; Liquid
endpoint label: molar heat capacity at constant pressure (J/K/mol)

| molecule | molar heat capacity at constant pressure (J/K/mol) |
| --- | --- |
| CCCCO | 218.1 |
| CCC(O)CO (centres undefined) | 256.29 |
| OCCCCO | 233.72 |
| CC(O)C(C)O (centres undefined) | 260.55 |

====

experiment: molar heat capacity at constant pressure; details: 298.15 K; 101.33 kPa; Liquid
endpoint label: molar heat capacity at constant pressure (J/K/mol)

| compound | molar heat capacity at constant pressure / J/K/mol |
| --- | --- |
| CC(O)CC(C)(C)O (stereo not given) [2-methyl-2,4-pentanediol] | 263.09 |
| CCCCO [butan-1-ol] | 177.1 |
| CCC(O)CO (stereo not given) [1,2-butanediol] | 230.94 |
| OCCCCO [1,4-butanediol] | 203.06 |
| CC(O)C(C)O (stereo not given) [2,3-butanediol] | 236.67 |

====

test: molar heat capacity at constant pressure; details: 303.15 K; 101.33 kPa; Liquid
endpoint label: molar heat capacity at constant pressure (J/K/mol)

| compound | molar heat capacity at constant pressure, J/K/mol |
| --- | --- |
| CCC(O)CO (stereo not given) | 233.64 |
| OCCCCO | 205.82 |

A: CCCCO
B: CC(O)CC(C)(C)O (stereo not given)
Could you determine which record has the numerically smaller molar heat capacity at constant pressure? Candidates: A and B Please identify the chosen entry by its label. A
(A: 180.61 J/K/mol, B: 267.1 J/K/mol)

====

settings: 298.15 K; 101.33 kPa; Liquid
endpoint label: mass density (kg/m3)

| compound | measured value |
| --- | --- |
| CCC(O)CO (centres undefined) [1,2-butanediol] | 998.408 |
| OCCCCO [1,4-butanediol] | 1012.75 |
| CC(O)C(C)O (centres undefined) [2,3-butanediol] | 1000.4 |
| CCCCO [butan-1-ol] | 805.77 |

====

experiment: molar heat capacity at constant pressure; conditions: 333.15 K; 101.33 kPa; Liquid
endpoint label: molar heat capacity at constant pressure (J/K/mol)

| molecule | molar heat capacity at constant pressure (J/K/mol) |
| --- | --- |
| OCCCCO [1,4-butanediol] | 223.9 |
| CC(O)CC(C)(C)O (stereo not given) [2-methyl-2,4-pentanediol] | 293.9 |
| CC(O)C(C)O (stereo not given) [2,3-butanediol] | 253.91 |
| CCCCO [butan-1-ol] | 204.72 |
| CCC(O)CO (stereo not given) [1,2-butanediol] | 249.2 |
